- targetOfAssay: Cytochrome P450 3A4 (Homo sapiens);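 further: CYP3A4 tested as one member of a cytochrome P450 panel screen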
- Sequence (P08684 whole entry): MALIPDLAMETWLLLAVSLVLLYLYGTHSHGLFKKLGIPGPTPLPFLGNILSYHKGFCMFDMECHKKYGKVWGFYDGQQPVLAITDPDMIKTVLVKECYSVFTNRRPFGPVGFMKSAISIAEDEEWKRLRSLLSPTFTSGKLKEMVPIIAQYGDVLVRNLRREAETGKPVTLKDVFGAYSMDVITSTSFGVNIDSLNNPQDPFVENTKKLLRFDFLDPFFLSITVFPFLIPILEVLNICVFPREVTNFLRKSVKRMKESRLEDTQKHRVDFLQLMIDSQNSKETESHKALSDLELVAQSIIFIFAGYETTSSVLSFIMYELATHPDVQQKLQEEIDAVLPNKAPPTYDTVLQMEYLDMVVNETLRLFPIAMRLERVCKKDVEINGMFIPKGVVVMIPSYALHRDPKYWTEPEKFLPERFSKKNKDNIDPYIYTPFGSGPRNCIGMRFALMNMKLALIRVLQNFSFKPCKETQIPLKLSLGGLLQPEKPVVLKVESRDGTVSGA
measuredQuantity: AC50

Sample records with AC50:
compound: O=C(c1ccccc1)c1cc(F)c(N2CCOCC2)cc1Cl
measuredResult: 17.8 µM (inconclusive)
--
compound: Fc1cccc(NC(S)=NCCCN2CCOCC2)c1
measuredResult: 17.8 µM (inconclusive)
--
compound: O=C(Nc1cccc2ncccc12)c1cccc(F)c1
measuredResult: 22.4 µM (inconclusive)
--
compound: CCOCC(=O)Nc1cc(C(=O)Nc2cccc(C)c2C)ccc1Cl
measuredResult: 25.1 µM (inconclusive)
--
compound: Cn1cccc1C(=O)N1CCC2(CCCN(c3ccccn3)C2)CC1
measuredResult: 20 µM (inconclusive)

// fetch Cytochrome P450 3A4 (Homo sapiens) AC50 for "CN(C)c1ncc2nc(CCc3ccccc3)c(=O)n(Cc3ccc(F)cc3)c2n1" 3.98 µM (inconclusive)

// fetch Cytochrome P450 3A4 (Homo sapiens) AC50 for "C/C(=N\NC(=O)COc1ccc([N+](=O)[O-])cc1)C(C)(C)C" 28.2 µM (inconclusive)

// fetch Cytochrome P450 3A4 (Homo sapiens) AC50 for O=C1C2CCCN2C(c2ccc(F)cc2)N1c1nccs1 (stereo not drawn) 22.4 µM (inconclusive)

// fetch Cytochrome P450 3A4 (Homo sapiens) AC50 for CC1CCCCN1c1cc(C#N)c(C#N)cc1[N+](=O)[O-] (stereo not drawn) 15.8 µM (inconclusive)

// fetch Cytochrome P450 3A4 (Homo sapiens) AC50 for "COC(=O)[C@H]1[C@@H](c2ccccc2)[C@@]2(c3ccccc3)Oc3ccccc3[C@@]1(O)[C@@H]2O" 3.16 µM (inconclusive)

// fetch Cytochrome P450 3A4 (Homo sapiens) AC50 for Cc1ccccc1C1C(C#N)=C2N=C(N)c3c(sc4c3CCCCC4)N2C2=C1C(=O)CC(C)(C)C2 (stereo not drawn) 1.12 µM (inconclusive)

// fetch Cytochrome P450 3A4 (Homo sapiens) AC50 for "CN(Cc1ccco1)c1ncncc1-c1ccoc1" 3.16 µM (inconclusive)

// fetch Cytochrome P450 3A4 (Homo sapiens) AC50 for "Cc1nnc(-c2cnn(-c3ccccc3)c2N)n1Cc1ccncc1" 15.8 µM (inconclusive)

----------
Let's look at some compounds and their measured IC50.
- targetOfAssay: Protein Tat (Human immunodeficiency virus type 1 group M subtype B (isolate HXB2)(HIV-1), UniProt P04608);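 further: tat binding to TAR RNA read out by fluorescence polarization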
- Sequence (P04608 whole entry): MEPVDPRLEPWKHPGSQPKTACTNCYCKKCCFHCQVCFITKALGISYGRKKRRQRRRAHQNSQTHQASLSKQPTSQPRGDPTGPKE
- Assay type: functional
Calls of active or inactive are those of the source.

Sample records with IC50:
compound: CC(C)CN(C(=O)CN1CCN(c2ccc(O)cc2)CC1)c1c(N)n(CC(C)C)c(=O)[nH]c1=O
IC50: > 100 µM (active)
//
compound: O=C1CC(Nc2ccc(N3CCOCC3)cc2)C(=O)N1c1cccc(C(F)(F)F)c1 (centres undefined)
IC50: 29.5 µM (inconclusive)
//
compound: COc1ccc(NC(=O)CCCSc2ccccc2)cc1
IC50: > 100 µM (active)

Moving on to the next compound.
# query: IC50 of entry "Cc1noc(C)c1COc1ccc(C(=O)OCC(=O)N2c3ccccc3NC(=O)C2(C)C)cc1" > 100 µM (inconclusive)

----------
Let's look at some molecules and their measured IC50.
- targetOfAssay: Mannose-6-phosphate isomerase (Homo sapiens, UniProt P34949)
- Sequence (P34949 whole entry): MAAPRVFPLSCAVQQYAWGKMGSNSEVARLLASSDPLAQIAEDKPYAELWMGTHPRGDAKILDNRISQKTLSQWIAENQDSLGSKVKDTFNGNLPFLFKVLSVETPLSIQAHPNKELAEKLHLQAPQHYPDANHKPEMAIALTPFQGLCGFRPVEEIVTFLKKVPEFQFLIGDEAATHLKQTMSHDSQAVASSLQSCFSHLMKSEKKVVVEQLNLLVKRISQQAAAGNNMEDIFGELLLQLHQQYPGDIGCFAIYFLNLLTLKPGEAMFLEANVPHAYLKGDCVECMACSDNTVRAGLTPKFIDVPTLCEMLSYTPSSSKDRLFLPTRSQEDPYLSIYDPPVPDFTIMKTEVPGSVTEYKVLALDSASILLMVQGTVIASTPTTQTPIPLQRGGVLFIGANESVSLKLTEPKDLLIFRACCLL
- assayText: human PMI inhibitors, high substrate, primary screen, biochemical, fluorescence intensity, high mannose 6-phosphate (AID 1220)
Activity calls are given as the source filed them.

smilesStr: [O-][N+]1=c2ccc(Nc3ccccc3)cc2=NC12CCCCC2
IC50: 48.2 µM (active)

# query: IC50 of entry "O=[N+]([O-])c1c(NCCCO)cc(Sc2ccc(Cl)cc2)c2nonc12" > 50 µM (not active)

# query: IC50 of entry "Oc1ccc2ccccc2c1/C=N\C1CCCCC1" 23.3 µM (active)

# query: IC50 of entry "CCOC(=O)NC1(Nc2ccc(C)cc2)Oc2ccccc2O1" > 50 µM (not active)
